Entry source: patent US7122683B2

biological target: human noradrenaline transporter (hNET) (Homo sapiens)
Sequence (P23975 whole entry): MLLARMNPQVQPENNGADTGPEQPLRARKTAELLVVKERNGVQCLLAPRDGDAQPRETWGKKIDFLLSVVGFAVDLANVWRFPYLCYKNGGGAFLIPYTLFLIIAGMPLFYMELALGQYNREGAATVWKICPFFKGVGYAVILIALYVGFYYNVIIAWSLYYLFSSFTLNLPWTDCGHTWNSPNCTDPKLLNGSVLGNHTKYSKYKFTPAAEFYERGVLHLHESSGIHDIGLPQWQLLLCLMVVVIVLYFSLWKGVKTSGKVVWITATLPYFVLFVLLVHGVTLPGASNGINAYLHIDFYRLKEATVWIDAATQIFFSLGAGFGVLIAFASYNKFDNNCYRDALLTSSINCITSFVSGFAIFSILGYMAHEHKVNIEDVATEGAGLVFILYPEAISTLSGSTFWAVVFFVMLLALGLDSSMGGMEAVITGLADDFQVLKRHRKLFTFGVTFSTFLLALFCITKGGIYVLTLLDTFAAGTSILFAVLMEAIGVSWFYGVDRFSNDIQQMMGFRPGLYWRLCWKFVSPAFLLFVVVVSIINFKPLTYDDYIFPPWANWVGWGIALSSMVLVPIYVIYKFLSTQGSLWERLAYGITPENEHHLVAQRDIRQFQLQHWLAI
Counter-ions that a name gives are not always drawn.
ENDPOINT: pKi
In textbook form, pKi equals minus log to base ten of the concentration in mol/L.

O=C(c1cccc(Cl)c1Cl)N(C1CCCCC1)[C@H]1CCNC1 [Example 6, hydrochloride] ... 7.96

In the following, a different compound is considered.
Please respond with reported pKi (system human noradrenaline transporter (hNET) (Homo sapiens)) for Cc1c(Cl)cccc1C(=O)N(CC1(C)CC1)[C@H]1CCNC1 [Example 20, hydrochloride] .
7.85
